Assay: in vitro
Details: human, hela cells, % viability
Kindly apply the following: Satisfied if viability at 28.5 h, 10 µM is less than 90%, Not satisfied in every other case.

Check out these entries, answers already filled in.
>>> print(df.to_string())
                     compound_string     class_name
0                Sc1nnc2sc3ccccc3n12  Not satisfied
1  O=C(c1sc2ccccc2c1Cl)n1cnc2ccccc21  Not satisfied

Continue with the molecule presented below.
Enquiry: Decide: viability at 28.5 h, 10 µM of CC(=O)c1ccc(-c2ccc(C(=O)N(C)CCN(C)C)c(N(C)C)n2)s1 strictly below 90%?
Return: Satisfied

----------
Would you kindly list viability at 28.5 h, 3 µM for each of these compounds?
Assay: in vitro
Parameters: Viability of infected HeLa host cells, resazurin conversion, bulk resorufin fluorescence relative to DMSO
Conditions: human, hela cells; bulk resorufin, mean of 3
Give bare numbers, in %.

Solved cases (3 shown):
                                   compound           measurement_name  observed
0  OCCNc1nc(Nc2ccc(Br)cc2)nc2ccccc12 [c17e]  viability at 28.5 h, 3 µM      84.9
1  COc1ccc(CC(=O)N2CCCC(c3nc(C)c4c(n3)N(CC3CC3)CCC4)C2)cc1 (stereo not drawn) [c52e]  viability at 28.5 h, 3 µM      90.3
2  O=C1C(NCCO)=C(Nc2cccc(Cl)c2)C(=O)c2ccccc21 [c45e]  viability at 28.5 h, 3 µM      93.6

Hi team, please reply with viability at 28.5 h, 3 µM for each item in this list.
1. O=C(N/N=C\c1ccc([N+](=O)[O-])o1)c1nc(-c2ccccc2)cc(-c2ccccc2)n1
2. COc1ccc(C2CC(=O)C=C(Nc3cc(Cl)ccc3O)C2)cc1 (stereo not drawn) [c24e]
3. COc1ccc2cc3c(nc2c1)OC(=O)N(CC1CC1)C3 [c32e]
4. CCC1C(c2ccc(C)cc2)=CCC(C(=O)NCCCN(C)C)C1C (stereo not drawn) [c30e]
5. CCOc1ccc2nc(NC(=N)N)nc(C)c2c1 [c37e]
6. Fc1cc(Br)c(CNCc2ncc[nH]2)c(N2CCCCC2)c1F [c31e]
7. O=C(c1ccc(-c2ccc(F)cc2)o1)N1C[C@H]2CC[C@](O)(c3ccc(F)cc3)[C@H]2C1
8. Cc1noc(-c2ccc3c(c2O)OCCO3)c1-c1ccc(Cl)cc1 [c20e]

Return:
1. 90
2. 87.6
3. 86.8
4. 89.5
5. 84.7
6. 101
7. 98.2
8. 83.4

Hi team, please reply with viability at 28.5 h, 3 µM for each item in this list.
1. Cc1cccc(-c2ccc(CC3(C(N)=O)CCN(C(=O)CCc4ccccc4)CC3)cc2)c1 [c38e]
2. COCC(=O)N[C@H]1C[C@H]2C(=O)Nc3ccc(/C=C/c4ccccc4)cc3C(=O)N2C1 [c25e]
3. O=C(NCCCn1ccnc1)c1cc(-c2cccc(Br)c2)nc2ccccc12 [c50e]
4. Fc1cccc(F)c1OCCOc1nc(N2CCNCC2)ccc1C(F)(F)F [c21e]
5. c1c(C2CC2)[nH]c2nc(N3CCCC3)nc(N3CCCC3)c12
6. Cc1cccc(OCC(C)NC(=O)NCCc2cnn(C)c2)c1 (stereo not drawn) [c47e]

Return:
1: 99.3; 2: 110; 3: 86.3; 4: 87.9; 5: 89.6; 6: 109

Hi team, please reply with viability at 28.5 h, 3 µM for each item in this list.
1. O=[N+]([O-])c1ccc2[nH]c3c(c2c1)CCCC3NC1CCN(CCc2ccccc2)CC1 (stereo not drawn) [c23e]
2. CC(=O)Nc1ccc(-c2cccc(COC3CCN(C(=O)c4ccc(OC(C)C)cc4)CC3)c2)cc1 [c36e]
3. C1=C(CCNCCc2ccccc2)c2ccccc2C12CCCC2 [c51e]

Return:
[93.2, 95.1, 100]

Hi team, please reply with viability at 28.5 h, 3 µM for each item in this list.
1. COc1ccc([C@@H]2CN(C)C[C@H]2NC(=O)Nc2ccc(Cl)c(Cl)c2)cc1OC [c39e]
2. CN(C)c1ccc(Nc2nc(NCCO)c3ccccc3n2)cc1 [c27e]
3. O=C(Nc1ccccc1N1CCCNCC1)c1ccc2ccccc2c1 [c29e]
4. COCCNc1nc2c(c(N3CCCCCC3)n1)CCNCC2 [c18e]
5. CC1=C(C)C(=NNC(N)=S)C(C)=C(C)C1=NNC(N)=S [c19e]
6. Oc1ccccc1Nc1nc(NC2CCCC2)c2ccccc2n1 [c49e]
7. O=C(Nc1ccc(OC(F)(F)F)cc1)Nc1cc(-c2cccs2)n[nH]1 [c26e]

Return:
[86.1, 103, 111, 108, 107, 84.7, 105]
